assayed-target: Actin nucleation-promoting factor WASL (Rattus norvegicus, UniProt O08816)
Sequence (O08816 whole entry): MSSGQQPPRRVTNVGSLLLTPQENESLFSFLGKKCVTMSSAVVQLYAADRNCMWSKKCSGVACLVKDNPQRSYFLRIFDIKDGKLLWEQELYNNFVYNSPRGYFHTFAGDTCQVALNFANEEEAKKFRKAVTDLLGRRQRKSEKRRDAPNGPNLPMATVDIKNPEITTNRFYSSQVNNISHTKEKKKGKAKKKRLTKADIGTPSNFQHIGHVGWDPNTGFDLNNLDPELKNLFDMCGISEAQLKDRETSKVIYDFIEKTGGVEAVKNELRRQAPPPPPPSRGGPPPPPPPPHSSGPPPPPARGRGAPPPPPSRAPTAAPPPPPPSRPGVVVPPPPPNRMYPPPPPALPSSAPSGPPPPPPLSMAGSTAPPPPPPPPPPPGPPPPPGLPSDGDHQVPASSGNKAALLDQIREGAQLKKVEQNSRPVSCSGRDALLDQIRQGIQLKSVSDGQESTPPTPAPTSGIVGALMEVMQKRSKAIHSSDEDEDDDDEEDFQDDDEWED
test-description: Inhibition of full-length rat N-WASP-induced Arp2/3 activation by fluorescence assay
pIC50: −log10 of the molar value.
reported-endpoint: pIC50

INSERT INTO assay_data (structure_as_smiles, assayed_target, value_measured) VALUES
  ('CN(C)C[C@@H](O)Cn1c2ccc(Br)cc2c2cc(Br)ccc21', 'Actin nucleation-promoting factor WASL (Rattus norvegicus, UniProt O08816)', 5.46),
  ('CN(C)C[C@H](O)Cn1c2ccc(Br)cc2c2cc(Br)ccc21', 'Actin nucleation-promoting factor WASL (Rattus norvegicus, UniProt O08816)', 5.36);

Cited source for all entries: ChEMBL document CHEMBL3774358
